Source of measurements: ChEMBL document CHEMBL3588789

experimentNotes: AUC (0 to infinity) in Sprague-Dawley rat at 25 mg/kg, po by LC-MS/MS method
Type: ADME, organism-based
Set-up: dose 25 mg/kg, time infinity, route oral
setupConditions: Sprague-Dawley, in vivo
Returns one of y or n; y when AUC(0-inf) is >= 1000 ng·h/mL.

Problem: Textbook exercise: given the entry CCN(CC)CC.Nc1ncnc2c1ncn2[C@@H]1O[C@H](CNS(=O)(=O)NC(=O)c2ccccc2O)[C@@H](O)[C@H]1F , state whether its AUC(0-inf) is greater than or equal to 1000 ng·h/mL.
Result: y

Problem: Textbook exercise: given the entry CCN(CC)CC.O=C(NS(=O)(=O)NC[C@H]1O[C@@H](n2cnc3c(NC4CC4)ncnc32)[C@H](O)[C@@H]1O)c1ccccc1O , state whether its AUC(0-inf) is greater than or equal to 1000 ng·h/mL.
Result: n

Problem: Textbook exercise: given the entry CCN(CC)CC.Nc1ncnc2c1ncn2[C@@H]1O[C@H](COS(=O)(=O)NC(=O)c2ccccc2O)[C@@H](O)[C@H]1O , state whether its AUC(0-inf) is greater than or equal to 1000 ng·h/mL.
Result: y

Problem: Textbook exercise: given the entry CCN(CC)CC.Nc1ncnc2c1ncn2[C@@H]1O[C@H](CNS(=O)(=O)NC(=O)c2ccccc2O)C[C@H]1F , state whether its AUC(0-inf) is greater than or equal to 1000 ng·h/mL.
Result: y

Problem: Textbook exercise: given the entry CC(=O)Oc1ccccc1C(=O)NS(=O)(=O)OC[C@H]1O[C@@H](n2cnc3c(N)ncnc32)[C@H](OC(C)=O)[C@@H]1OC(C)=O.CCN(CC)CC , state whether its AUC(0-inf) is greater than or equal to 1000 ng·h/mL.
Result: n

Problem: Textbook exercise: given the entry CCN(CC)CC.O=C(NS(=O)(=O)NC[C@H]1O[C@@H](n2cnc3c(NC4CC4)nc(-c4ccccc4)nc32)[C@H](O)[C@@H]1O)c1ccccc1O , state whether its AUC(0-inf) is greater than or equal to 1000 ng·h/mL.
Result: n

Problem: Textbook exercise: given the entry CCN(CC)CC.Nc1nc(-c2ccccc2)nc2c1ncn2[C@@H]1O[C@H](CNS(=O)(=O)NC(=O)c2ccccc2O)[C@@H](O)[C@H]1F , state whether its AUC(0-inf) is greater than or equal to 1000 ng·h/mL.
Result: y

Problem: Textbook exercise: given the entry CCN(CC)CC.Nc1ccc(C(=O)NS(=O)(=O)NC[C@H]2O[C@@H](n3cnc4c(N)ncnc43)[C@H](O)[C@@H]2O)c(O)c1 , state whether its AUC(0-inf) is greater than or equal to 1000 ng·h/mL.
Result: n
